Hey, just so you know, these numbers are from patent US8541418B2.

molecular target: PLK3 (Homo sapiens, UniProt Q9H4B4); assay: PLK TR-FRET peptide assay, PLK3; format: biochemical; settings: GST-PLK3, 15 min reaction, read-out: Plk3 IC50
Sequence (Q9H4B4 whole entry): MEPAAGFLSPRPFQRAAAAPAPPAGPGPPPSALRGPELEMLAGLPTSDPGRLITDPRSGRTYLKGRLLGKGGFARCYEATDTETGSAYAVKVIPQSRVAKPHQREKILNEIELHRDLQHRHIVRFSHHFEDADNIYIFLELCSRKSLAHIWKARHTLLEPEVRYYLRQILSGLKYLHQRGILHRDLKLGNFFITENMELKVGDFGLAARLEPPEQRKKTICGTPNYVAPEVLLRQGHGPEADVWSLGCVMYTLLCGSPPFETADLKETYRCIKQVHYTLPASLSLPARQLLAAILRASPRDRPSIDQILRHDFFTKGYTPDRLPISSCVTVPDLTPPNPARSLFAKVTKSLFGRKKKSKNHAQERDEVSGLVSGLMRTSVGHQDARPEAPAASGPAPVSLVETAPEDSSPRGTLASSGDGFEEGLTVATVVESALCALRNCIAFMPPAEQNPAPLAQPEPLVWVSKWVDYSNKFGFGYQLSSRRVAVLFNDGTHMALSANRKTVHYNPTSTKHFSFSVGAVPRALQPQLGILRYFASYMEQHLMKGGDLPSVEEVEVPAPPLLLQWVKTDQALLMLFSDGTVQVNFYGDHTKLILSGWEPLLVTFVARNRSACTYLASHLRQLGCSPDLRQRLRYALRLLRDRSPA
QUANTITY_KIND: IC50

Task: Name the value of IC50 reported for CC[C@@]12CCC(=O)N1c1nc(-n3ccnc3)ncc1N(C)C2=O [Example 311] when tested on PLK3 (Homo sapiens, UniProt Q9H4B4).
Output: > 50 µM

New cases:
Task: Name the value of IC50 reported for CC[C@@H]1C(=O)N(C)c2cnc(-n3ccnc3N3C(=O)CCC3=O)nc2N1C1CCC1 [Example 112] when tested on PLK3 (Homo sapiens, UniProt Q9H4B4).
Output: > 50 µM

Task: Name the value of IC50 reported for [2H]C([2H])([2H])N1C(=O)C(C([2H])([2H])C([2H])([2H])[2H])N(C([2H])(C([2H])([2H])[2H])C([2H])([2H])[2H])c2nc(-c3c[nH]nc3-c3ccccc3)ncc21 (centres unmarked) [Example 165] when tested on PLK3 (Homo sapiens, UniProt Q9H4B4).
Output: 1 to 10 µM

Task: Name the value of IC50 reported for CC[C@]12CCCCN1c1nc(-n3ccnc3-c3ccccc3)ncc1N(C)C2=O [Example 263] when tested on PLK3 (Homo sapiens, UniProt Q9H4B4).
Output: > 50 µM

Task: Name the value of IC50 reported for CC[C@@]12CCCN1c1nc(N3CCN=C3c3ccccc3)ncc1N(C)C2=O [Example 281] when tested on PLK3 (Homo sapiens, UniProt Q9H4B4).
Output: 10 to 50 µM

Task: Name the value of IC50 reported for CC[C@@H]1C(=O)N(C)c2cnc(-n3ccnc3-c3ccncc3)nc2N1C(C)C [Example 150] when tested on PLK3 (Homo sapiens, UniProt Q9H4B4).
Output: 1 to 10 µM
